# ASSAYED SYSTEM: PVNZ112.6-CBP (Parapoxvirus of red deer in New Zealand (PVNZ), strain RD86)
# EXPERIMENT NOTES: SPR; CBP-FLAG immobilised by amine coupling on a CM5 chip (300-400 RU, 10 mM sodium acetate pH 4.5); serial dilutions of mouse chemokine flowed in triplicate for 3 min, 10 min dissociation; 25°C; HBS-EP buffer (20 mM HEPES, 150 mM NaCl, 3.4 mM EDTA, 0.005% Polysorbate 20, pH 7.4); Biacore X100; global fit with a 1:1 binding model
VALUE TYPE: kon (M⁻¹ s⁻¹)
Record the value in M⁻¹ s⁻¹, omitting the unit from your answer.

- BINDER: "recombinant mouse CXCL4 (ligand) VTSAGPEESDGDLSCVCVKTISSGIHLKHITSLEVIKAGRHCAVPQLIATLKNGRKICLDRQAPLYKKVIKKILES"
  kon, M⁻¹ s⁻¹: "1.85e+07"
- BINDER: "recombinant mouse CCL3 (ligand) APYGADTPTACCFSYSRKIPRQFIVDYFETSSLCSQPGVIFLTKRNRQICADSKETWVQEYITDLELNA"
  kon, M⁻¹ s⁻¹: "1.42e+07"
- BINDER: "recombinant mouse CXCL10 (ligand) IPLARTVRCNCIHIDDGPVRMRAIGKLEIIPASLSCPRVEIIATMKKNDEQRCLNPESKTIKNLMKAFSQKRSKRAP"
  kon, M⁻¹ s⁻¹: 140000
- BINDER: "recombinant mouse CCL22 (ligand) GPYGANVEDSICCQDYIRHPLPSRLVKEFFWTSKSCRKPGVVLITVKNRDICADPRQVWVKKLLHKLS"
  kon, M⁻¹ s⁻¹: "2.17e+07"

Lookup: # lookup: kon of recombinant mouse CCL19 (ligand) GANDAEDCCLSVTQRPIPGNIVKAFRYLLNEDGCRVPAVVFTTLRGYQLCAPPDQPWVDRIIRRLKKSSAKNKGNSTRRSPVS
Found: 1e+07
